The measured values listed here are drawn from patent US20240317683A1.

target: 5-HT1A (Homo sapiens (Human)); assay: FLIPR Ca2+ flux agonist assay, 5-HT1A; format: cell-based; details: Ca2+ flux, CHO cells
Counter-ions that a name gives are not always drawn.
reported endpoint: 5-HT1A % Act @ Max Dose (%)
Reply numerically in %, unit not repeated.

Previously resolved entries follow.
* COc1ccc2[nH]cc(CCN(C)C)c2c1 [Compound 5-MeO-DMT, 5-methoxy-N,N-dimethyltryptamine, reference compound] | 78.8
* CCCN(CC)CCc1c[nH]c2ccc(F)cc12 [Compound 3, hydrochloride] | 88.34
* CCN(C)CCc1c[nH]c2ccc(F)cc12 [Compound 4, hydrochloride] | 83.01

Give me measured 5-HT1A % Act @ Max Dose, please, for this compound: `CCN(C)CCc1c[nH]c2ccccc12`
73.6

====

experiment: Pharmacokinetics in mice, plasma; format: in vivo, C57BL/6 mice; settings: male, C57BL/6; mouse plasma, IV, 10 mg/kg
Where a name gives a salt, the structure may show the parent alone.
Parameter AUC(0-t): see the listing below.
Number in ng·h/mL, nothing else.

Below, 2 molecules whose answers are already recorded.
- CCN(C)CCc1c[nH]c2ccccc12: 545
- CCN(C)CCc1c[nH]c2ccc(F)cc12 [Compound 4, hydrochloride]: 1790

Next up:
Please supply the value of reported AUC(0-t) for the item `CCCN(CC)CCc1c[nH]c2ccccc12`
844

====

assay: Pharmacokinetics in mice, brain; assay type: in vivo, C57BL/6 mice; conditions: male, C57BL/6; mouse brain, oral, 10 mg/kg
Where a name gives a salt, the structure may show the parent alone.
// reported Tmax per item
Your answer should be a plain number; it is taken to be in min.

Sample answers from the record:
• CCN(C)CCc1c[nH]c2ccc(F)cc12 [Compound 4, hydrochloride] = 15
• CCN(C)CCc1c[nH]c2ccccc12 = 30

Field: next molecule
Answer with the recorded Tmax for the molecule listed here: `CCCN(CC)CCc1c[nH]c2ccccc12`
15

====

test: Pharmacokinetics in mice, plasma; assay type: in vivo, C57BL/6 mice; settings: male, C57BL/6; mouse plasma, oral, 1 mg/kg; read-out: Cmax
reported endpoint: Cmax (ng/mL)
Field format: number, assumed ng/mL, no unit text.

Indicate its recorded Cmax; the molecule in question is CN(C)CCc1c[nH]c2cccc(O)c12 [Psilocin, psilocin, reference compound]
85.9

====

experiment: Pharmacokinetics in mice, plasma; format: in vivo, C57BL/6 mice; conditions: male, C57BL/6; mouse plasma, IV, 10 mg/kg
Counter-ions that a name gives are not always drawn.
reported endpoint: clearance (mL/min/kg)
Numeric only. Scale: mL/min/kg

Worked examples, 2 molecules total:
• CCCN(CC)CCc1c[nH]c2ccccc12 = 197
• CCN(C)CCc1c[nH]c2ccc(F)cc12 [Compound 4, hydrochloride] = 92.8

Determine from records and report clearance for `CCN(C)CCc1c[nH]c2ccccc12`
304

====

experiment: Pharmacokinetics in mice, plasma; assay type: in vivo, C57BL/6 mice; details: male, C57BL/6; mouse plasma, SC, 1 mg/kg; read-out: Cmax
Where a name gives a salt, the structure may show the parent alone.
reported endpoint: Cmax
Hi, when you answer, please include the unit after the number. Thanks!

* CN(C)CCc1c[nH]c2ccc(F)cc12 [Compound 5, hydrochloride] | 41.6 ng/mL

// fetch Cmax given entry CCN(C)CCc1c[nH]c2ccc(F)cc12 [Compound 4, hydrochloride]
83.2 ng/mL

====

assay: Pharmacokinetics in mice, brain; format: in vivo, C57BL/6 mice; details: male, C57BL/6; mouse brain, oral, 1 mg/kg
reported endpoint: half-life (h)
Write the answer as a number in h, unit excluded.

Using the record for CN(C)CCc1c[nH]c2cccc(O)c12 [Psilocin, psilocin, reference compound] , state its measured half-life.
2.91

====

assay: Pharmacokinetics in mice, plasma; format: in vivo, C57BL/6 mice; conditions: male, C57BL/6; mouse plasma, oral, 1 mg/kg
reported endpoint: Tmax

Please look at this compound and report its Tmax: CN(C)CCc1c[nH]c2cccc(O)c12 [Psilocin, psilocin, reference compound]
10.2 min

====

experiment: Stability in rat brain homogenate; assay type: in vitro ADME, Sprague Dawley rats; conditions: male, Sprague Dawley; rat brain homogenate, 1 μM, 37° C.
Where a name gives a salt, the structure may show the parent alone.
half-life at 1 μM values for the molecules below.

Output half-life at 1 μM of CCCN(CC)CCc1c[nH]c2ccc(F)cc12 [Compound 3, hydrochloride]
> 289 min

Item `CCN(C)CCc1c[nH]c2cccc(O)c12` : provide half-life at 1 μM
53 min

Return half-life at 1 μM (reported value) for this molecule: `CCN(C)CCc1c[nH]c2ccccc12`
> 289 min

Hello, please tell me recorded half-life at 1 μM for this one: CN(C)CCc1c[nH]c2cccc(O)c12 [Psilocin, psilocin, reference compound]
115 min

Give the reported half-life at 1 μM for this molecule. `CCCN(CC)CCc1c[nH]c2ccccc12`
> 289 min

Quote half-life at 1 μM reported for CN(C)CCc1c[nH]c2ccccc12 [DMT, N,N-dimethyltryptamine, reference compound] please.
5.1 min

Give recorded half-life at 1 μM. CCN(C)CCc1c[nH]c2ccc(F)cc12 [Compound 4, hydrochloride]
183 min

Give reported half-life at 1 μM value for CN(C)CCc1c[nH]c2ccc(F)cc12 [Compound 5, hydrochloride]
2.7 min

State, in one line, measured half-life at 1 μM of COc1ccc2[nH]cc(CCN(C)C)c2c1 [Compound 5-MeO-DMT, 5-methoxy-N,N-dimethyltryptamine, reference compound]
14.4 min

====

Measured Remaining (t = 60 min), listed per entry.
test system: monoamine oxidase A and B (MAO-A and MAO-B); assay: Stability in the presence of monoamine oxidases (human liver mitochondria); type: in vitro ADME; conditions: human mitochondrial preparation, 1 μM, 60 min
Counter-ions that a name gives are not always drawn.
Write the answer as a number in %, unit excluded.

Known results for compounds:
• CCCN(CC)CCc1c[nH]c2ccc(F)cc12 [Compound 3, hydrochloride] = 97.7
• CCN(C)CCc1c[nH]c2cccc(O)c12 = 112.3
• CN(C)CCc1c[nH]c2cccc(O)c12 [Psilocin, psilocin, reference compound] = 112.1
• CN(C)CCc1c[nH]c2ccccc12 [DMT, N,N-dimethyltryptamine, reference compound] = 8.9
• COc1ccc2[nH]cc(CCN(C)C)c2c1 [Compound 5-MeO-DMT, 5-methoxy-N,N-dimethyltryptamine, reference compound] = 47.1

# return Remaining (t = 60 min) of `CCN(C)CCc1c[nH]c2ccccc12` (system: monoamine oxidase A and B (MAO-A and MAO-B))
84.5

Print monoamine oxidase A and B (MAO-A and MAO-B) Remaining (t = 60 min) for CN(C)CCc1c[nH]c2ccc(F)cc12 [Compound 5, hydrochloride] .
0.9

Fetch value of Remaining (t = 60 min) on monoamine oxidase A and B (MAO-A and MAO-B) for CCN(C)CCc1c[nH]c2ccc(F)cc12 [Compound 4, hydrochloride] .
75.0

Report value: Remaining (t = 60 min), system: monoamine oxidase A and B (MAO-A and MAO-B), compound: `CCCN(CC)CCc1c[nH]c2ccccc12`
95.1

====

experiment: Pharmacokinetics in rats, plasma; format: in vivo; conditions: male, Sprague Dawley; rat plasma, SC, 10 mg/kg
Counter-ions that a name gives are not always drawn.
reported endpoint: Tmax (h)
Write the answer as a number in h, unit excluded.

Assign Tmax to the following record: CCN(C)CCc1c[nH]c2ccc(F)cc12 [Compound 4, hydrochloride]
1

Return Tmax (reported value) for this compound: CN(C)CCc1c[nH]c2ccc(F)cc12 [Compound 5, hydrochloride]
0.25

Please give measured Tmax of the following entry: `CCN(C)CCc1c[nH]c2cccc(O)c12`
2

====

test: Stability in mouse brain homogenate; format: in vitro ADME, CD-1 mice
Counter-ions that a name gives are not always drawn.
reported endpoint: stability in mouse brain homogenate (in words)

# count of solved cases: 5
- CN(C)CCc1c[nH]c2ccccc12 [DMT, N,N-dimethyltryptamine, reference compound]: highly unstable
- CCCN(CC)CCc1c[nH]c2ccccc12 [Compound 1, ethylpropyltryptamine]: high stability
- COc1ccc2[nH]cc(CCN(C)C)c2c1 [Compound 5-MeO-DMT, 5-methoxy-N,N-dimethyltryptamine, reference compound]: high stability
- CCCN(CC)CCc1c[nH]c2ccc(F)cc12 [Compound 3, hydrochloride]: high stability
- CCN(C)CCc1c[nH]c2ccc(F)cc12 [Compound 4, hydrochloride]: intermediate stability

// fetch stability in mouse brain homogenate (in words) given entry CN(C)CCc1c[nH]c2ccc(F)cc12 [Compound 5, hydrochloride]
highly unstable

====

assay: Pharmacokinetics in rats, brain; type: in vivo, Sprague Dawley rats; conditions: male, Sprague Dawley; rat brain, SC, 10 mg/kg
Structures can show the parent of a compound that is named as a salt.
Recorded half-life values for a group of molecules are listed next.
Number in min, nothing else.

Using the record for CCN(C)CCc1c[nH]c2ccc(F)cc12 [Compound 4, hydrochloride] , state its measured half-life.
31.2

Return reported half-life. Input molecule: `CCN(C)CCc1c[nH]c2cccc(O)c12`
125

Supply half-life value. Item: CN(C)CCc1c[nH]c2ccc(F)cc12 [Compound 5, hydrochloride]
23.4
